These entries and their values trace back to patent US20250346584A1.

Listed below: log10 of IC50 values for each entry.
# STUDY_TARGET: kappa opioid receptor (OPRK1) (Homo sapiens (Human), UniProt P41145)
# Sequence (P41145 whole entry): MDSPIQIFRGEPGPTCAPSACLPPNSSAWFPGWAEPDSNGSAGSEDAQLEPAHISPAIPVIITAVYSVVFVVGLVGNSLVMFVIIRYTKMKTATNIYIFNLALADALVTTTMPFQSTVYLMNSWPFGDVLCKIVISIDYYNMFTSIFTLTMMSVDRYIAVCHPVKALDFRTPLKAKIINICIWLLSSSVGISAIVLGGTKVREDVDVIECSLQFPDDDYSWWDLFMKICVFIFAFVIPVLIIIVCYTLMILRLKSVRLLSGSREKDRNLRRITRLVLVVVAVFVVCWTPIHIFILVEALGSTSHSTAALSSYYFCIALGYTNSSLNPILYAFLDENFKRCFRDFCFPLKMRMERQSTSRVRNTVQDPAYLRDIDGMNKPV
# ASSAY_EXPLANATION: OPRK1 antagonist assay (b-arrestin-2-TEV / b-lactamase reporter cell line, EC80 U-50488 challenge)
# Format: cell-based
# EXPERIMENTAL_CONDITIONS: read-out: IC50 nM (% inhib if other than 50%); antagonist mode vs EC80 U-50488; NA = not active at concentrations up to 10 μM
Values reflect log10 of reported IC50 (nM).

Example compounds with recorded log10 of IC50:
The compound COC1CN(c2nc3ccc(F)cc3cc2-c2nc(C)no2)CCC1NC1CCCCC1 (stereo not drawn) showed log10 of IC50 equal to 1.41

The compound Cc1noc(-c2cc3ccc(F)cc3nc2N2CCC(NC3CCOCC3)CC2)n1 showed log10 of IC50 equal to 1.36

The compound Cc1nc(-c2cc3ccc(F)cc3nc2N2CCC(N[C@H]3CCCOC3)CC2)no1 showed log10 of IC50 equal to 3.03

The compound Cc1noc(-c2cc3ccccc3nc2N2CC[C@@H](NC3CCCCC3)[C@H](O)C2)n1 [compound 192] showed log10 of IC50 equal to 2.30

The compound Cc1ccc2nc(N3CCC(NC4CCCCC4O)CC3)c(-c3noc(C)n3)cc2c1 (stereo not drawn) showed log10 of IC50 equal to 1.04

Continuing:
The compound CCOC(=O)c1noc(-c2cc3cc(C)ccc3nc2N2CCC(NC3CCCCC3)C(CO)C2)n1 (stereo not drawn) showed log10 of IC50 equal to 4.25

The compound COC1CN(c2ncc(C)cc2C=O)CCC1NC1CCCCC1 (stereo not drawn) showed log10 of IC50 equal to 4.48

The compound CCc1noc(-c2cc3cc(C)ccc3nc2N2CC[C@@H](NC3CCCCC3)[C@@H](OC)C2)n1 showed log10 of IC50 equal to 0.30

The compound Cc1ccc2nc(N3CCC(NC4CCCC[C@@H]4O)CC3)c(-c3noc(C)n3)cc2c1 (stereo partly drawn) showed log10 of IC50 equal to 1.23

The compound CCc1noc(-c2cc3cc(C)ccc3nc2N2CCC(NC3CCOCC3)C(OC)C2)n1 (stereo not drawn) showed log10 of IC50 equal to 0.75

The compound COC(=O)c1cccnc1N1CCC(NC2CCCCC2)C(O)C1 (stereo not drawn) showed log10 of IC50 equal to 3.34

The compound COC(=O)c1cc(Br)cnc1N1CCC(NC2CCCCCC2)CC1 showed log10 of IC50 equal to 2.04

The compound CCOC(=O)c1cc(Br)cnc1N1CCC(NC2CCCCC2)C(OC)C1 (stereo not drawn) showed log10 of IC50 equal to 1.93

---

# STUDY_TARGET: kappa opioid receptor (OPRK1) (Homo sapiens (Human), UniProt P41145)
# ASSAY_EXPLANATION: OPRK1 antagonist assay (b-arrestin-2-TEV / b-lactamase reporter cell line, EC80 U-50488 challenge)
# Assay type: cell-based
# EXPERIMENTAL_CONDITIONS: read-out: IC50 nM (% inhib if other than 50%); antagonist mode vs EC80 U-50488; NA = not active at concentrations up to 10 μM
PROPERTY_MEASURED: IC50

The compound CCCC(=O)Nc1cnc(N2CCC(NC3CCCCC3)CC2)c(C(=O)OC)c1 [compound 95] showed IC50 equal to 1.4 nM

The compound CCOC(=O)c1cc(Cl)cnc1N1CCC(NC2CCCCC2)C(CO)C1 (stereo not drawn) [compound 71] showed IC50 equal to 93 nM

The compound Cc1noc(-c2cc(C)c(C)nc2N2CCC(NC3CCCCC3C)C(CO)C2)n1 (stereo not drawn) [compound 224] showed IC50 equal to 17 nM

The compound COC(=O)c1cc(Br)cnc1N1CCC(NC2CCCC2)C(CO)C1 (stereo not drawn) [compound 79] showed IC50 equal to 25 nM

The compound COC(=O)c1cc(C)ccc1N1CCC(NC2CCCCC2)C(OC)C1 (stereo not drawn) [compound 539] showed IC50 equal to 3700 nM

Continuing:
The compound COC(=O)c1cc(I)cnc1N1CCC(NC2CCCCC2)CC1 [compound 36] showed IC50 equal to 79 nM

The compound Cc1noc(-c2cc3ccccc3nc2N2CC(NC3CCCCC3)C2)n1 [compound 234] showed IC50 equal to 596 nM

The compound CCC1(CO)CN(c2nc3ccccc3cc2-c2nc(C)no2)CCC1NC1CCCCC1 (stereo not drawn) [compound 208] showed IC50 equal to 76 nM

The compound CCOC(=O)c1nc2cc(C)ccc2nc1N1CCC(NC2CCCCC2)C(CO)C1 (stereo not drawn) [compound 373] showed IC50 equal to 63 nM

The compound COC(=O)c1cc(I)cnc1N1CCC(NC2CCCCC2)C(O)C1 (stereo not drawn) [compound 126] showed IC50 equal to 112 nM

---

# STUDY_TARGET: kappa opioid receptor (OPRK1) (Homo sapiens (Human))
# ASSAY_EXPLANATION: OPRK1 antagonist assay (b-arrestin-2-TEV / b-lactamase reporter cell line, EC80 U-50488 challenge)
# Assay type: cell-based
# EXPERIMENTAL_CONDITIONS: read-out: IC50 nM (% inhib if other than 50%); antagonist mode vs EC80 U-50488; NA = not active at concentrations up to 10 μM
PROPERTY_MEASURED: IC50 (nM)
Output spec: scalar in nM, unitless text.

Example compounds with recorded IC50:
The compound COC1CN(c2nc3ccccc3cc2-c2nc(C)no2)CCC1NC1CCOCC1 (centres unmarked) [compound 325] showed IC50 equal to 8

The compound CCc1ccc2nc(N3CCC(NC4CCCCC4)C(OC)C3)c(-c3nc(C)no3)cc2c1 (centres unmarked) [compound 268] showed IC50 equal to 37

The compound Cc1ccc2nc(N3CC[C@@H](NC4CCCCC4)[C@H](O)C3)c(-c3nc(C)no3)cc2c1 [compound 213] showed IC50 equal to 8.5

Query compound follows.
The compound COC(=O)c1cc(Br)cnc1N1CCC(NCCO)CC1 [compound 6] showed IC50 equal to 9200

---

# STUDY_TARGET: kappa opioid receptor (OPRK1) (Homo sapiens (Human), UniProt P41145)
# ASSAY_EXPLANATION: OPRK1 antagonist assay (b-arrestin-2-TEV / b-lactamase reporter cell line, EC80 U-50488 challenge)
# Type: cell-based
# EXPERIMENTAL_CONDITIONS: read-out: IC50 nM (% inhib if other than 50%); antagonist mode vs EC80 U-50488; NA = not active at concentrations up to 10 μM
Listed below: IC50 values for each entry.
Output spec: scalar in nM, unitless text.

The compound Cc1ccc2nc(N3CCC(NC4CCCC4)CC3)c(-c3ccncn3)cc2c1 [compound 533] showed IC50 equal to 263

The compound CO[C@@H]1CN(c2nc3c(C)c(F)ccc3cc2-c2nc(C)no2)CC[C@@H]1NC1CCCCC1 [compound 492] showed IC50 equal to 74

Continuing:
The compound CC(=O)c1cc2cc(C)ccc2nc1N1CCC(NC2CCOCC2)CC1 [compound 478] showed IC50 equal to 900

The compound Cc1ccc2nc(N3CCC(NC(C)C4CCCCC4)CC3)c(-c3nc(C)no3)cc2c1 (centres unmarked) [compound 349] showed IC50 equal to 21

The compound Cc1ccc2nc(N3CCC(NC4CCOCC4)CC3)c(C(=O)OC(C)C)cc2c1 [compound 302] showed IC50 equal to 274

The compound O[C@@H]1CN(c2nc3ccccc3cc2-c2ncco2)CC[C@H]1NC1CCCCC1 [compound 218] showed IC50 equal to 475

The compound CCOC(=O)c1cc(C(=O)OC)c(C)nc1N1CC[C@@H](NC2CCCCC2)[C@H](O)C1 [compound 119] showed IC50 equal to 12

The compound CNC(=O)c1cc2cc(C)ccc2nc1N1CCC(NC2CCCCC2)C(OC)C1 (centres unmarked) [compound 278] showed IC50 equal to 4720

---

# STUDY_TARGET: kappa opioid receptor (OPRK1) (Homo sapiens (Human), UniProt P41145)
# ASSAY_EXPLANATION: OPRK1 antagonist assay (b-arrestin-2-TEV / b-lactamase reporter cell line, EC80 U-50488 challenge)
# Format: cell-based
# EXPERIMENTAL_CONDITIONS: read-out: IC50 nM (% inhib if other than 50%); antagonist mode vs EC80 U-50488; NA = not active at concentrations up to 10 μM
Each record gets a class by IC50: low end: < 100 nM; middle: ≥ 100 nM and < 1000 nM; high end: ≥ 1000 nM

In plain terms, what class is COC(=O)c1cc(Br)cnc1N1CC(O)C(NC2CCCCC2)C1 (stereo not drawn) ?
middle

In plain terms, what class is Cc1noc(-c2cc3ccccc3nc2N2CCC(CO)(NC3CCCCC3)CC2)n1 ?
middle

In plain terms, what class is COC1CCCCC1NC1CCN(c2ncc(C)cc2-c2nc(C)no2)CC1CO (stereo not drawn) ?
middle

In plain terms, what class is COC(=O)c1cc(Br)cnc1N1CCC(NC2CCCCC2)C(CO)C1 (stereo not drawn) ?
low end

In plain terms, what class is CC(=O)c1cc(Br)cnc1N1CCC(NC2CCCCC2)C(CO)C1 (stereo not drawn) [compound 144] ?
high end

Continuing:
In plain terms, what class is OCc1cc(Br)cnc1N1CCC(NC2CCCCC2)CC1 ?
high end

In plain terms, what class is COC(=O)c1cc(Br)cnc1N1CCC(NC2CCCCC2CO)CC1 (stereo not drawn) ?
high end

In plain terms, what class is Cc1noc(-c2cc3c(F)cccc3nc2N2CCC(NCC(C)C)CC2)n1 ?
low end
